- Assay System: T1, human C1s (human, UniProt P09871 16-688)
- T1 construct: also called hC1s; serum-derived human C1s (CompTech)
- T1 sequence: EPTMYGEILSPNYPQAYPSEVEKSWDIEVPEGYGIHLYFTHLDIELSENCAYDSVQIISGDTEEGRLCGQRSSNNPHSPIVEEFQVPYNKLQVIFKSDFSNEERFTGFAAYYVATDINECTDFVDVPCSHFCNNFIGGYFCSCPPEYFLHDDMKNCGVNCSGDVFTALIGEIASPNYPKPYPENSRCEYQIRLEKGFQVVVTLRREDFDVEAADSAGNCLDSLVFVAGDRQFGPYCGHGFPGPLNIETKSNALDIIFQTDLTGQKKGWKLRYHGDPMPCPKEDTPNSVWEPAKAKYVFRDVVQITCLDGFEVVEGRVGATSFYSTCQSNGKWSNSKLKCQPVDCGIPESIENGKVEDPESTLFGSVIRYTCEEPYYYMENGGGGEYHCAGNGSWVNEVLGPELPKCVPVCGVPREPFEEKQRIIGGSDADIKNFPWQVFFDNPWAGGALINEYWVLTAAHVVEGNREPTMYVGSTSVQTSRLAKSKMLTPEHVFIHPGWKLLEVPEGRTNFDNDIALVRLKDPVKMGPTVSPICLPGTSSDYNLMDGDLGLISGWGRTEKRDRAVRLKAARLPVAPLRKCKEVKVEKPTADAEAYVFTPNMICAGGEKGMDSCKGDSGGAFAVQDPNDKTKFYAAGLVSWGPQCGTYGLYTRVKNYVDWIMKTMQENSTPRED
- Assay Protocol: SPR, Ab captured; pH 7.4, 1.2 mM Ca
Recorded Endpoint: kon (M⁻¹ s⁻¹)
Expressed in M⁻¹ s⁻¹, but write only the number.

Observe how each entry below is paired with its result.
{"Binder": "C1_IPN009VH2-SG4GK/IPN93L0029-SK1 (antibody, human IgG4 S228P, kappa, name in Kabat numbering, V domains shown, also called IPN009VH2/IPN93L0029) VH: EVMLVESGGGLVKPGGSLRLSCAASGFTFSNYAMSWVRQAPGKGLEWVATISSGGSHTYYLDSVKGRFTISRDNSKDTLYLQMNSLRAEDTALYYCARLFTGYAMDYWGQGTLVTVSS VL: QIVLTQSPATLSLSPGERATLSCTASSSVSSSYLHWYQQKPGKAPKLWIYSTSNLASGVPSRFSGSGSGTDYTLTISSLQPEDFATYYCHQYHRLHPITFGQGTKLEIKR", "kon [M⁻¹ s⁻¹]": 494000}
{"Binder": "C1_IPN92H0033-SG4GK/IPN93L0028-SK1 (antibody, human IgG4 S228P, kappa, name in Kabat numbering, V domains shown, also called IPN92H0033/IPN93L0028) VH: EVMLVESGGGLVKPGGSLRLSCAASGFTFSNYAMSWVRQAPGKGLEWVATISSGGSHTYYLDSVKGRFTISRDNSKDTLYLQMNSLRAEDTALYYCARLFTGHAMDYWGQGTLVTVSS VL: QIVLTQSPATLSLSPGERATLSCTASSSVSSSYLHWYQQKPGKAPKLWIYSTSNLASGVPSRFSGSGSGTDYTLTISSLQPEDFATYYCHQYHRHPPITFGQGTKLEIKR", "kon [M⁻¹ s⁻¹]": 335000}
{"Binder": "C1_IPN009VH2-SG4GK/IPN93L0030-SK1 (antibody, human IgG4 S228P, kappa, name in Kabat numbering, V domains shown, also called IPN009VH2/IPN93L0030) VH: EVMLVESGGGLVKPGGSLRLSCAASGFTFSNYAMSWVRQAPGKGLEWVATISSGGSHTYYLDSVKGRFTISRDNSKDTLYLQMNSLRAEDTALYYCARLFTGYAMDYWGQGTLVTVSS VL: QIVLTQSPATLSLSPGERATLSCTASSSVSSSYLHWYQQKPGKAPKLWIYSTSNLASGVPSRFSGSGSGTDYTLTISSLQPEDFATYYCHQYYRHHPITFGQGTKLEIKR", "kon [M⁻¹ s⁻¹]": 612000}
{"Binder": "C1_IPN92H0033-SG4GK/IPN93L0021-SK1 (antibody, human IgG4 S228P, kappa, name in Kabat numbering, V domains shown, also called IPN92H0033/IPN93L0021) VH: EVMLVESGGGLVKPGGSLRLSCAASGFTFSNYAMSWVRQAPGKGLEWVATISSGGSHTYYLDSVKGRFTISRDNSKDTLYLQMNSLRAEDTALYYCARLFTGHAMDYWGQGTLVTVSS VL: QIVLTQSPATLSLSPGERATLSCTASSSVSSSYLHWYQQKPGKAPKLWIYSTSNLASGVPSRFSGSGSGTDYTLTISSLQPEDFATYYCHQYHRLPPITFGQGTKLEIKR", "kon [M⁻¹ s⁻¹]": 350000}

Here's the next entry for you.
Note to self: kon recorded for C1_IPN92H0038-SG4GK/IPN93L0030-SK1 (antibody, human IgG4 S228P, kappa, name in Kabat numbering, V domains shown, also called IPN92H0038/IPN93L0030) VH: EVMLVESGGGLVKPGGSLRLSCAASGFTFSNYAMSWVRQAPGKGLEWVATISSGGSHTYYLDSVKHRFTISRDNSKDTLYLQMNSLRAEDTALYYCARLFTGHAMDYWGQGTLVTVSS VL: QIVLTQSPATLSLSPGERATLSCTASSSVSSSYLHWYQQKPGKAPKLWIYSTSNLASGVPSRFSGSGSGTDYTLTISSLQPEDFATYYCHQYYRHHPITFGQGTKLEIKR was 558000
